Values were extracted from patent US6511961B1.

# ASSAY_TARGET: VLA-4-IgG chimeric protein (Homo sapiens, UniProt P05556+P13612)
# Sequence (P13612 34-1032, change not shown): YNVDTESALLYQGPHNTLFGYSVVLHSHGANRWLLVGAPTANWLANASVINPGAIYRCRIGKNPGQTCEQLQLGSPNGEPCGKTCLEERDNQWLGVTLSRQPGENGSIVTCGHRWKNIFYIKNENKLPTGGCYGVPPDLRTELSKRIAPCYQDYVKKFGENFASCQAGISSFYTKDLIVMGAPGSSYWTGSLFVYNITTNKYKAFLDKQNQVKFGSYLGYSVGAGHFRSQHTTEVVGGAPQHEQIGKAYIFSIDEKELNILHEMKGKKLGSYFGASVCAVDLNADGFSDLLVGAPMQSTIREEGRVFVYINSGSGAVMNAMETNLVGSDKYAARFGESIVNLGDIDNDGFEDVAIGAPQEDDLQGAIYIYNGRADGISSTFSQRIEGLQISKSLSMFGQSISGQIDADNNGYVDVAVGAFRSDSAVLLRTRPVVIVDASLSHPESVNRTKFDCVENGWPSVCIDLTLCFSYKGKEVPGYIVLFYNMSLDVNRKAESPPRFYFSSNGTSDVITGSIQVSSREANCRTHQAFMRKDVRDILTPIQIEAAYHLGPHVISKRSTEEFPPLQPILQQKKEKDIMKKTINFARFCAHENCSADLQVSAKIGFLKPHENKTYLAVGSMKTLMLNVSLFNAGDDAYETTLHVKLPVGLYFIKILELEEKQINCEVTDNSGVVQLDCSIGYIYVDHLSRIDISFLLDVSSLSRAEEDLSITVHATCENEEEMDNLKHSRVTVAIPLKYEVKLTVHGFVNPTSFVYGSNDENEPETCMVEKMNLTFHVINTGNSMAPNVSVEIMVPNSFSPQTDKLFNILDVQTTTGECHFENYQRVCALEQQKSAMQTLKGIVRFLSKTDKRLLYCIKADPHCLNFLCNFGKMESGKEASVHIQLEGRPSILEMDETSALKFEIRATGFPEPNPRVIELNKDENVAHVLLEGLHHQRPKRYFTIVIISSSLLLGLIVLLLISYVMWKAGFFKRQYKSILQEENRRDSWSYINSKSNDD
# Sequence (P05556 21-798, change not shown): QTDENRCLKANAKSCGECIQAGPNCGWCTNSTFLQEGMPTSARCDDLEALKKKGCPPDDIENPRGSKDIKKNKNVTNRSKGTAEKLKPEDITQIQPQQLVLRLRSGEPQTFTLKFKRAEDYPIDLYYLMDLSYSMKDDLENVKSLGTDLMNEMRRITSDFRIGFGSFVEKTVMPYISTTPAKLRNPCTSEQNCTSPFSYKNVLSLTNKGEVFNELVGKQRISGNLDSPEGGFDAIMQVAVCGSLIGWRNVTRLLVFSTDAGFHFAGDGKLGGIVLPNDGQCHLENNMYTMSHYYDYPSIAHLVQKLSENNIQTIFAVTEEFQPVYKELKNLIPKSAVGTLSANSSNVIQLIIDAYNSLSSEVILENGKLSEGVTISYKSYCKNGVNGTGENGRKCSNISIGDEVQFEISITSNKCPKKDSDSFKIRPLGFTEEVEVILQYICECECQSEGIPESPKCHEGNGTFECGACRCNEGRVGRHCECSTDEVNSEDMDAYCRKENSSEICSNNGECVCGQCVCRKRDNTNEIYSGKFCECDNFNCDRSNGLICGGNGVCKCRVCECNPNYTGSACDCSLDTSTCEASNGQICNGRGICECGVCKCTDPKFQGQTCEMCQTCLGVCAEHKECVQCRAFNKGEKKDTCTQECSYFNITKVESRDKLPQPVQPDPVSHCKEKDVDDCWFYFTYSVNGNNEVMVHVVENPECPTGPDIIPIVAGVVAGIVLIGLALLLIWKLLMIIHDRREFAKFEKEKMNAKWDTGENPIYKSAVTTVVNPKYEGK
# ASSAY_METHOD_TEXT: Inhibition of binding of CS-1 peptide and VLA-4-IgG chimeric protein
# ASSAY_CONTEXT: binding of immobilized CS-1 peptide and VLA-4-IgG chimeric protein, absorbance at 490 nm
Bridge positions count the residues as written; N and C are the ends. Square brackets hold non-standard residues; d marks the D form. Peptide text beside a SMILES is read from it. Tic = O=C(O)[C@@H]1Cc2ccccc2CN1
RESULT_TYPE: IC50 (nM)

MOLECULE	ASSAY_TARGET	IC50 (nM)
CC[C@H](C)[C@@H]1NC(=O)[C@@H](N)CSSC[C@@H](C(=O)O)NC(=O)[C@H](CC(C)C)NC(=O)[C@H](Cc2c[nH]cn2)NC(=O)[C@H](CC(=O)O)NC1=O [compound 4] (H-CIDHLC-OH; disulfide 1-6)	VLA-4-IgG chimeric protein (Homo sapiens, UniProt P05556+P13612)	1200

P. CC[C@H](C)[C@@H]1NC(=O)[C@H](Cc2ccccc2)NC(=O)[C@H](CC(=O)O)NC(=O)[C@H]([C@@H](C)CC)NC(=O)[C@@H](N)CSSC[C@@H](C(=O)O)NC1=O [compound 48] (H-CIDFIC-OH; disulfide 1-6)
Q. CC(C)C[C@@H]1NC(=O)[C@H](Cc2c[nH]cn2)NC(=O)[C@H](CC(=O)O)NC(=O)[C@@H]2Cc3ccccc3CN2C(=O)[C@@H](N)CSSC[C@@H](C(=O)O)NC1=O [compound 25] (H-C[Tic]DHLC-OH; disulfide 1-6)
R. CC[C@H](C)[C@@H]1NC(=O)[C@@H](N)CSSC[C@@H](C(=O)O)NC(=O)[C@H](CC(C)C)NC(=O)[C@H](Cc2c[nH]cn2)NC(=O)[C@H](CCC(=O)O)NC1=O [compound 9] (H-CIEHLC-OH; disulfide 1-6)
# ascending order, key=IC50 Put the labels in the order asked and list them.
P, Q, R
